Data origin, for the record: ChEMBL document CHEMBL1133892

// reported Ki per item
- testedOn: Prostaglandin E2 receptor EP4 subtype (Mus musculus, UniProt P32240)
- Sequence (P32240 whole entry): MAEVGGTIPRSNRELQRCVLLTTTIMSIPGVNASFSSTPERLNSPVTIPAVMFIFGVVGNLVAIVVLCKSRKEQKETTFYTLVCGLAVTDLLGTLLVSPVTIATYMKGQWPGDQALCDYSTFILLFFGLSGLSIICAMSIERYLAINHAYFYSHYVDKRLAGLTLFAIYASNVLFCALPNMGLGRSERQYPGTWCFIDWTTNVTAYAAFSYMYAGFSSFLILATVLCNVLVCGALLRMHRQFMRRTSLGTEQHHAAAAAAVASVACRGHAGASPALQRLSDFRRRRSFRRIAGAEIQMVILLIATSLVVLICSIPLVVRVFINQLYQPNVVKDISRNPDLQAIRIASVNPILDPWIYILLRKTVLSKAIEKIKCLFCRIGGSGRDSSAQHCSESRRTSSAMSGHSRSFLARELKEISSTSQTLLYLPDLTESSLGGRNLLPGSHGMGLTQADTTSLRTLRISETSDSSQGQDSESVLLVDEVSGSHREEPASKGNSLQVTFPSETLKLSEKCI
- methodSummary: Binding affinity towards mouse Prostanoid EP4 receptor in CHO cells.

Record summary for "CCCC1([C@@H](O)C/C=C/[C@H]2[C@H](O)CC(=O)[C@@H]2C/C=C\CCCC(=O)O)CCCC1" : reported Ki = > 10 µM

Memo: "CCCC1([C@@H](O)C/C=C/[C@H]2[C@H](O)CC(=O)[C@@H]2C/C=C\CCCC(=O)O)CCCCC1" , reported Ki: > 10 µM

Lab book: Ki of "CCCC1([C@@H](O)C/C=C/[C@H]2[C@H](O)CC(=O)[C@@H]2C/C=C\CCCC(=O)O)CCC1" noted as > 10 µM

Memo: "CCC1([C@@H](O)C/C=C/[C@@H]2[C@@H](C/C=C\CCCC(=O)O)[C@@H](Cl)C[C@H]2O)CCC1" , reported Ki: > 10 µM

What the record says about CCCC1([C@@H](O)C/C=C/C2[C@H](O)CC(=O)[C@@H]2CCCCCCC(=O)OC)CCC1 (stereo partly drawn) : Ki is > 10 µM
